Entry source: paper PMC12040169

procedureText: in vitro
measurementParameters: human, hela cells, % viability
The entries below come with measured viability at 28.5 h, 10 µM values attached.
quantity: viability at 28.5 h, 10 µM (%)

compound="FC(F)(F)c1ccnc(OCc2cccnc2)n1 [CBK115902]" recordedresult=102
compound="CC(C)(CO)CNc1cncc(-c2cccs2)n1 [CBK065599]" recordedresult=88.3
compound="CC(C)c1nc2c(n1C)CCN(Cc1cc(=O)n3ccccc3n1)C2 [CBK305061]" recordedresult=92.6
compound="CN(CC(=O)O)S(=O)(=O)c1cccc2cccc(Cl)c12 [CBK268433]" recordedresult=107
compound="CN(C)C(=O)c1cccc(-c2nccnc2NCCO)c1 [CBK036582]" recordedresult=90.3
compound="O=S(=O)(c1cccc2nsnc12)N1CCN(C2CCCCC2)CC1 [CBK268173]" recordedresult=96.9
compound="Cn1cnc2cc(NCc3cc(-c4ccc(F)cc4)c[nH]c3=O)ccc21 [CBK284693]" recordedresult=50.7
compound="O=[N+]([O-])c1nn(-c2ccccc2)[n+]([O-])c1Nc1ccc(Br)cc1 [CBK268504]" recordedresult=98.7
compound="Cc1nonc1NC(=O)CN1CCCC1 [CBK261840]" recordedresult=109
compound="Cc1cccc(-c2ccc(CC3(C(N)=O)CCN(C(=O)c4ccccc4)CC3)cc2)c1 [CBK285778]" recordedresult=93.9
compound="COC(=O)c1ccccc1NC(=O)CC1Nc2ccccc2NC1=O (stereo not shown) [CBK269276A]" recordedresult=91.9
compound="CN(CCC1CCN(c2ccncc2)CC1)C(=O)c1cc2sccc2[nH]1 [CBK305468]" recordedresult=93.3
compound="O=C(O)/C=C/C(=O)Nc1cccc(C(=O)O)c1 [CBK260988]" recordedresult=97.7
compound="COCCNC(=O)Nc1ccc2nc(-c3ccccn3)c(-c3ccccn3)nc2c1 [CBK265151]" recordedresult=89.9
compound="Cc1cc(CNS(=O)(=O)c2cccc3nonc23)no1 [CBK062263]" recordedresult=106
compound="O=C(NC[C@H]1O[C@@H](CC(=O)N2CCN(c3ccccc3)CC2)[C@H](O)[C@@H]1O)c1ccccc1 [CBK288920]" recordedresult=108
compound="CN(C)CCn1ccnc1C1CCCN(C(=O)Cc2cccc(Cl)c2)C1 (stereo not shown) [CBK307272]" recordedresult=92.3
compound="CN(C)S(=O)(=O)c1ccc(C(=O)C2=C(O)C(=O)N(Cc3cccnc3)C2c2ccncc2)cc1 (stereo not shown) [CBK264714]" recordedresult=95.4
compound="O=C1CNC(=O)C2(C/C=C/C[C@H]3COCC[C@H]3N1)CCN(C(=O)Cc1cccnc1)CC2 [CBK292068]" recordedresult=103
